Experiment: Drug tissue distribution assay: plasma pharmacokinetics
Type: in vivo
Conditions: mouse, mice, single oral intragastric 30 mg/kg

| Compound | Tmax, h |
| --- | --- |
| CCOc1nc(Nc2ccc(C(N3CCOCC3)C(F)(F)F)cc2OC)nc2[nH]ccc12 (single isomer, unassigned) | 1 |

---

Biological target: LRRK2 G2019S (Homo sapiens (Human), UniProt Q5S007, G2019S)
Sequence (Q5S007 whole entry G2019S): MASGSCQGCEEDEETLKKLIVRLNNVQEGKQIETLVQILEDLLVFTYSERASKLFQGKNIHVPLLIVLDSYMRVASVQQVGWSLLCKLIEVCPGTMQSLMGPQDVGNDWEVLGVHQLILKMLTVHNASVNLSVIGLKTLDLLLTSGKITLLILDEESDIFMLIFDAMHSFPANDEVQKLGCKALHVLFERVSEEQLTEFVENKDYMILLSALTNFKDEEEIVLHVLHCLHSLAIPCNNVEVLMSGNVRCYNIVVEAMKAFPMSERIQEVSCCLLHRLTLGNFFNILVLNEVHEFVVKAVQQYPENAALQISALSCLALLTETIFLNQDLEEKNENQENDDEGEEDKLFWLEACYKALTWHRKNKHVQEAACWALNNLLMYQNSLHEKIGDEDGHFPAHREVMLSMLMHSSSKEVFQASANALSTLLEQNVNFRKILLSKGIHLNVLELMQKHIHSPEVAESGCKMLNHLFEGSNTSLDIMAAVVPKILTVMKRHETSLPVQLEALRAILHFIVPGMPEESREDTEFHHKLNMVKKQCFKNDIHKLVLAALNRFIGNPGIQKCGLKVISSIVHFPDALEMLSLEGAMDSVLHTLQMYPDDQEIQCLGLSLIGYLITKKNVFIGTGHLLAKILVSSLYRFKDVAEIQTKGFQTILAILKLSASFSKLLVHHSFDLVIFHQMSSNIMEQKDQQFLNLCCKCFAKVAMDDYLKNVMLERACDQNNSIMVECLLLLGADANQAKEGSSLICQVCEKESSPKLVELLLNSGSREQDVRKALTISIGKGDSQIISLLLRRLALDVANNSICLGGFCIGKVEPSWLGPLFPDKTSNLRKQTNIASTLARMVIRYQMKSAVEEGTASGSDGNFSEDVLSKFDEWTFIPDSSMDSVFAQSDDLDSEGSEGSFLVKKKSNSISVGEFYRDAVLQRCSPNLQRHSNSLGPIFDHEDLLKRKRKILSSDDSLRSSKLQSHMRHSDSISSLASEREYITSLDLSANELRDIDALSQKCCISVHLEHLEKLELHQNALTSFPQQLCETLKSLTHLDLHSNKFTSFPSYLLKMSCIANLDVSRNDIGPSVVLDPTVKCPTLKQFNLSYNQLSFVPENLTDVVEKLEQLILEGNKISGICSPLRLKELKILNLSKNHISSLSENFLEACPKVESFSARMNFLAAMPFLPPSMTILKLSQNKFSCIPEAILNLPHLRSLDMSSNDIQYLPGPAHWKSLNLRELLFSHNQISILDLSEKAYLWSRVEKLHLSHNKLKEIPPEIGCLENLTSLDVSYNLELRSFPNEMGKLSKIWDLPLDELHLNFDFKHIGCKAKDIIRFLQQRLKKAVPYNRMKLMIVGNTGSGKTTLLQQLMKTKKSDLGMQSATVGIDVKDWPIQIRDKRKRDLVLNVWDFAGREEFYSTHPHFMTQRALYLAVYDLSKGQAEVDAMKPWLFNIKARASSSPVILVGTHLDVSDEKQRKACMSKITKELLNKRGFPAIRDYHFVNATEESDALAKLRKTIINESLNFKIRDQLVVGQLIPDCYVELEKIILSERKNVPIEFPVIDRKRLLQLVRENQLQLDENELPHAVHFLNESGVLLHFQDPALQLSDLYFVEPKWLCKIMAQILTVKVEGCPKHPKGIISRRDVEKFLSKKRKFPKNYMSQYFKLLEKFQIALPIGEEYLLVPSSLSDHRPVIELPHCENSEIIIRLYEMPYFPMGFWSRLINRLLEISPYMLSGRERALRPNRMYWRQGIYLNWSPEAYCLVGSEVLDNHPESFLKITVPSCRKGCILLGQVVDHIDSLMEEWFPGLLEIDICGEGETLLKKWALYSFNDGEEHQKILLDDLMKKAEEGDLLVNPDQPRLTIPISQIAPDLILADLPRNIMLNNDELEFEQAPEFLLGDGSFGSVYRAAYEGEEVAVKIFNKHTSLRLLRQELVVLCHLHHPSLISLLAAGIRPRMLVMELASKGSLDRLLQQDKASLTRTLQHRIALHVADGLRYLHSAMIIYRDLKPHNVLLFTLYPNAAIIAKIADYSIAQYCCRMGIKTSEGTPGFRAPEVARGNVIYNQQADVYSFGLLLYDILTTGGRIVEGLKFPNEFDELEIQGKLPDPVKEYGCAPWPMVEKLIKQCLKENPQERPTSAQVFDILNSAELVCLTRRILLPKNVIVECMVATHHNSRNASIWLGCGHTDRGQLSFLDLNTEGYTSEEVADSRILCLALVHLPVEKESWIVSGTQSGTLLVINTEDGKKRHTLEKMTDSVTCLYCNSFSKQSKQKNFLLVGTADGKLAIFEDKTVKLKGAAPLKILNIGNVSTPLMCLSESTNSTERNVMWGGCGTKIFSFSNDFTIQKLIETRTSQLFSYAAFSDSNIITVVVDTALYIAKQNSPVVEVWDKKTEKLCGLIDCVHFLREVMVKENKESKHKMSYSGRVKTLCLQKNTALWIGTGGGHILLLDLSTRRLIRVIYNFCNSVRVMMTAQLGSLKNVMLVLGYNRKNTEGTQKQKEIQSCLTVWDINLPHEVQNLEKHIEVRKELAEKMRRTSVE
Assay: Adapta kinase assay (LRRK2_IC50 assay)
Settings: Adapta TR-FRET, 1 h, room temperature

| Molecule | IC50 |
| --- | --- |
| CCOc1nc(Nc2ccc(C(N3CCOCC3)C(F)(F)F)cc2F)nc2[nH]ccc12 (single isomer, unassigned) [Compound 13] | 31 nM |
| CCOc1nc(Nc2ccc(C(N3CCOCC3)C(F)(F)F)cc2F)nc2[nH]ccc12 (single isomer, unassigned) [Compound 14] | 30 nM |
| CCOc1nc(Nc2ccc(C(N3CCOCC3)C(F)(F)F)cc2OC)nc2[nH]ccc12 (single isomer, unassigned) [Compound 4] | 17 nM |

Where these numbers come from: patent US20230391775A1
